Molecular target: T1, EsCas13d, nuclease-dead (Eubacterium siraeum, UniProt B0MS50, R295A;H300A;R849A;H854A)
T1 sequence: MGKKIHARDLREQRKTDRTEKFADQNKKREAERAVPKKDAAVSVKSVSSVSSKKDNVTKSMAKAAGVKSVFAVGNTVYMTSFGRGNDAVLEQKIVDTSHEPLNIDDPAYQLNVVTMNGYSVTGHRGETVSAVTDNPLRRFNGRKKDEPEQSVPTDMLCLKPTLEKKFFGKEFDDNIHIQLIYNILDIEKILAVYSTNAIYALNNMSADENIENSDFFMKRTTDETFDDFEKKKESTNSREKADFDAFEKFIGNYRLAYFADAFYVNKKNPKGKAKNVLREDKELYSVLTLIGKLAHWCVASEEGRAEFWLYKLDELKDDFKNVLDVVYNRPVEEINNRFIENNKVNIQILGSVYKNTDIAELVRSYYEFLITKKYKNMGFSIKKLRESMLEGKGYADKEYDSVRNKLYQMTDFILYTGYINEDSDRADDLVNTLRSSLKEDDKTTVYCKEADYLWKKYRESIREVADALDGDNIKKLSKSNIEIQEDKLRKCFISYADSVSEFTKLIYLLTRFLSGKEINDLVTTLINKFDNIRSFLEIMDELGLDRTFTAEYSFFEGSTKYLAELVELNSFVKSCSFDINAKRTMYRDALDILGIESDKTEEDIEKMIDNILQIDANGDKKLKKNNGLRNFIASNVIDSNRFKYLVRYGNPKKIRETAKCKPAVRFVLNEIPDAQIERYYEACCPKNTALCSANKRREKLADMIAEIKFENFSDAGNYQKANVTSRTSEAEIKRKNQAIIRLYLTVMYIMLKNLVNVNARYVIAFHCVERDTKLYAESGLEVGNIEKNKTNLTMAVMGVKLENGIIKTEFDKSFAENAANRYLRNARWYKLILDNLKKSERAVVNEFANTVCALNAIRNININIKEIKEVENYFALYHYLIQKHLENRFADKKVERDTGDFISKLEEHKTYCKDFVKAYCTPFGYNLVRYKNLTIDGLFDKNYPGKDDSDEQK
Assay: crRNA (strand 1, pre-loaded); Mg2+; 40 mM Tris-HCl pH 7.5, 150 mM NaCl, 6 mM MgCl2, 1 mM DTT, 0.1% Tween-20, 0.2 mg/ml BSA; 25 C; 10 min per concentration, then washed
Details: tags: His6-TwinStrep-SUMO cleaved; N-terminal SNAP kept (SNAP-Surface 488); label: 3' end held by stalled T7 RNA polymerase
parameter: Kd (nM)
All answers are understood in nM, so give the number only.

Q) Report Kd for target 1 insU 3' of 22,insC 3' of 3 (mixed) RNA 1: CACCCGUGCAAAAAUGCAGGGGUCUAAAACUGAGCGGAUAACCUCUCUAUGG RNA 2: GGGAAUGGAUCCACAUCUACGAAUUCGUACUCAUAGAGAGGUUAUCCGCUCCACCGAGAUCGGAAGAGCACACGU please.
A) 28

Q) How about target 2 MT 5'PFS AUA 3'PFS UCG (mixed) RNA 1: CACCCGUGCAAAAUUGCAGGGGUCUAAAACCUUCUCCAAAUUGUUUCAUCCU RNA 2: GGGAAUGGAUCCACAUCUACGAAUUCAUAAGGAUGAAACAAUUUGGAGAAGUCGAGAUCGGAAGAGCACACGU ?
A) 20

Q) Param item: target 1 insA 3' of 15,insU 3' of 7 (mixed) RNA 1: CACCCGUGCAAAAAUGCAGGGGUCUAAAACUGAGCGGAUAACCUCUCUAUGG RNA 2: GGGAAUGGAUCCACAUCUACGAAUUCGUACCAUAGAGAAGGUUAUCUCGCUCACCGAGAUCGGAAGAGCACACGU
A) 13.5

Q) Thanks! And target 1 G5A,A9C (mixed) RNA 1: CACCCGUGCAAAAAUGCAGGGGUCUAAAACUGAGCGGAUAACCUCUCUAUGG RNA 2: GGGAAUGGAUCCACAUCUACGAAUUCGUACCAUAGAGAGGUUCUCCACUCACCGAGAUCGGAAGAGCACACGU ?
A) 16.7

Q) Next: target 1 A9G,U11A (mixed) RNA 1: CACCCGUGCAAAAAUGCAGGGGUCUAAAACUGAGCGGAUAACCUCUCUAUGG RNA 2: GGGAAUGGAUCCACAUCUACGAAUUCGUACCAUAGAGAGGAUGUCCGCUCACCGAGAUCGGAAGAGCACACGU
A) 42.7

Q) Okay, and target 2 MT 5'PFS GCU 3'PFS UGU (mixed) RNA 1: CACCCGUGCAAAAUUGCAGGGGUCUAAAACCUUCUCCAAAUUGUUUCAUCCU RNA 2: GGGAAUGGAUCCACAUCUACGAAUUCGCUAGGAUGAAACAAUUUGGAGAAGUGUAGAUCGGAAGAGCACACGU ?
A) 17.7

Q) Okay, and target 1 C2U,U10A (mixed) RNA 1: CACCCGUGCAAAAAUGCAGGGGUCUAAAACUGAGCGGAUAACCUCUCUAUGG RNA 2: GGGAAUGGAUCCACAUCUACGAAUUCGUACCAUAGAGAGGUAAUCCGCUUACCGAGAUCGGAAGAGCACACGU ?
A) 11.6

Q) And for target 1 insC 3' of 13,insA 3' of 8 (mixed) RNA 1: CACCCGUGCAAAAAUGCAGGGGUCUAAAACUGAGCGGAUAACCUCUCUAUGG RNA 2: GGGAAUGGAUCCACAUCUACGAAUUCGUACCAUAGAGAGCGUUAUACCGCUCACCGAGAUCGGAAGAGCACACGU ?
A) 16.6
